Attribution: the supplement of paper PMC10567573

B1: S100A14 (parent)
chain: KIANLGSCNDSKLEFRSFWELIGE

Variants of: B1
Assay: protein stability index of a GFP-peptide fusion (GPS, HEK-293T) (PSI 1-6); higher = more stable;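 also: lentivirally expressed fusions sorted by FACS into six bins by GFP to DsRed ratio, PSI derived from sequencing read proportions per bin multiplied by bin number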
Settings: c terminus: a fixed tail appended
measurement name: protein stability index
Answers are plain numbers.

Solved entries (count: 5):
S17R : 1.34
I2V : 1.88
G6H : 1.5
N4K : 3.15
K1G : 2.04

For each of the variants below, note its protein stability index.
1. G6K
2. W19Q
3. N9V
4. E14D
5. L13T
6. N4E

Result block:
1. 3.01
2. 1.73
3. 2.01
4. 1.89
5. 2.24
6. 1.68

Could you report protein stability index for every entry in the following list?
1. L5N
2. E14T
3. K1I
4. N9C

Result block:
[2.44, 1.43, 1.79, 1.75]

Would you mind listing protein stability index for each of the following variants?
1. G6W
2. K1N
3. K12N
4. C8S
5. W19L
6. E20L

Result block:
[2.21, 1.41, 2.29, 1.99, 1.56, 2.77]

List protein stability index for every entry below, keeping the order given.
1. A3S
2. F18A
3. G23I
4. R16K

Result block:
1. 1.66
2. 2.2
3. 1.86
4. 1.36

Answer for every listed entry: what is its protein stability index? The entries follow.
1. L13R
2. S17D

Result block:
1: 1.5; 2: 1.95

Would you be so kind as to report protein stability index for each listed record?
1. N9T
2. L5M
3. K1M

Result block:
1.56
1.85
1.59

List protein stability index for every entry below, keeping the order given.
1. I2D
2. A3G
3. N9M
4. E24R
5. R16M
6. G23K
7. F15G

Result block:
[1.61, 2.48, 1.97, 1.37, 1.78, 1.82, 1.92]

Please give protein stability index for each item listed below.
1. S7P
2. F18C
3. E14K
4. K12A
5. N4G
6. E24T

Result block:
1. 2.5
2. 2.11
3. 1.47
4. 2.02
5. 2.83
6. 1.9
